biological target: PDE4B3 (Mus musculus, UniProt Q8VBU5); construct: targets used in the assays are full-length proteins (as opposed to simply the catalytic domain); expressed in transfected cells; host or cells: Schizosaccharomyces pombe, PDE gene integrated in place of cgs2; experiment: 5FOA growth assay in fission yeast strain expressing PDE4B3; format: cell-based, Murine; conditions: high throughput 5FOA growth screen
Composite Z score, PDE4B3: recorded values
// print number alone

c1cncc(CNc2ncnc3sc4c(c23)CCCC4)c1 : 0.501
CCN(CC)CCCNc1ncnc2sc3c(c12)CC(C)CC3 (stereo not drawn) : −0.877
CCN(CC)c1ncnc2sc(C)c(C)c12 : 0.0332
O=C(Nc1ncnc2sc3c(c12)CCC3)c1cccs1 : 0.9421
Cc1sc2ncnc(NCCc3ccc4c(c3)OCCO4)c2c1C : 25.393
CC(C)CNc1ncnc2sc3c(c12)CCCC3 : 9.3964

Briefly, Composite Z score, PDE4B3 measured for CCOC(=O)c1ccccc1NC(=O)c1sc2nc(C)nc(N(CC)CC)c2c1C : 1.0041

CC1CCc2c(sc3ncnc(NCCN4CCOCC4)c23)C1 (stereo not drawn) has a reported Composite Z score, PDE4B3 of −1.074

Noted for CCC(CO)Nc1nc(C)nc2sc3c(c12)CCC3 (stereo not drawn) [Compound 1380M03] : its Composite Z score, PDE4B3 reads −2.398

Consider CCN(CC)c1nc(C)nc2sc(C(=O)N3CCCCCC3)c(C)c12 . Its measured Composite Z score, PDE4B3 is 12.239

Reported Composite Z score, PDE4B3 of CCN(CC)c1nc(C)nc2sc(C(=O)Nc3cc(Cl)ccc3OC)c(C)c12 : 3.2214

Quick note, Composite Z score, PDE4B3 for C=CCNc1ncnc2sc3c(c12)CCCC3 landed at 31.009

Given item CCNc1nc(SCC(=O)NC(=O)NCc2ccccc2)nc2sc3c(c12)CCN(C)C3 , the value recorded as its Composite Z score, PDE4B3 is 0.0285

Composite Z score, PDE4B3 measured on Cc1c(C(=O)N2CCCCCC2)sc2ncnc(N3CCN(c4ccccc4)CC3)c12 = 7.48

# molecule c1cn(CCCNc2ncnc3sc4c(c23)CCCC4)cn1 ; its Composite Z score, PDE4B3 = 0.5336

Value of Composite Z score, PDE4B3 reported for the molecule CCOC(=O)CSc1nc(NC)c2c3c(sc2n1)CCCC3 is 1.2391

Cc1c(C(=O)NCCC2CCCCC2)sc2ncnc(N3CCCCC3C)c12 (stereo not drawn) yielded Composite Z score, PDE4B3 of −1.056

Input O=C(Nc1ncnc2sc3c(c12)CCC3)c1ccccc1 . Output Composite Z score, PDE4B3: −0.935

Noted for Cc1c(C(=O)NCCC(C)C)sc2ncnc(N3CCOCC3)c12 : its Composite Z score, PDE4B3 reads 0.9277

Just so you know, measured Composite Z score, PDE4B3 for CC(C)CC(Nc1ncnc2sc3c(c12)CCC3)C(=O)O (stereo not drawn) came out at 0.1698

---

molecular target: PDE4A5 (Rattus norvegicus); construct: targets used in the assays are full-length proteins (as opposed to simply the catalytic domain); expressed in transfected cells; host or cells: Schizosaccharomyces pombe, PDE gene integrated in place of cgs2; experiment: 5FOA growth assay in fission yeast strain expressing PDE4A5; type: cell-based; conditions: high throughput 5FOA growth screen
Sequence (P54748 whole entry, the tested form may be a part): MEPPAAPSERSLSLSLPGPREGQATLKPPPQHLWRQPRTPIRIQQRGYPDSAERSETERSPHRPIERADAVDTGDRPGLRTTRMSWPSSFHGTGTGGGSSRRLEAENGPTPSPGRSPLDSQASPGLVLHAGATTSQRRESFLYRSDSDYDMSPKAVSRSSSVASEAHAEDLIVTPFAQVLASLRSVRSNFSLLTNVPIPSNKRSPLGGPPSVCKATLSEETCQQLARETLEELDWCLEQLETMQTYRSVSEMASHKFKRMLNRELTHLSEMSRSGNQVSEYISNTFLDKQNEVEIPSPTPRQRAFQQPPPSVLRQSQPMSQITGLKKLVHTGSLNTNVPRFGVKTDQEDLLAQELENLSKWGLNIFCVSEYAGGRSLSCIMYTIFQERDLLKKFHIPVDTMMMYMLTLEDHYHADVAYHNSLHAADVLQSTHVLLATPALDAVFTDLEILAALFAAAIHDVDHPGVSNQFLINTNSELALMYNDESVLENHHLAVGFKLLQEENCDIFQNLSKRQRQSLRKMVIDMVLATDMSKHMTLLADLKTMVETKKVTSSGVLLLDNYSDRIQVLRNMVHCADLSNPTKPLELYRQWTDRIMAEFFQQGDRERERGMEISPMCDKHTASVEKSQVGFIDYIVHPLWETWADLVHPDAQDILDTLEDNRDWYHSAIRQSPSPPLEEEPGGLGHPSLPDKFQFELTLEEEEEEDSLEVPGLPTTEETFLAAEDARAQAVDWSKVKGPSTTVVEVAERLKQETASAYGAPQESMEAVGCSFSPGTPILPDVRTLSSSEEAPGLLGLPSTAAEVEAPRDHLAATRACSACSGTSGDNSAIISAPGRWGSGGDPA
Entries annotated with measured Composite Z score, PDE4A5
The answer should be written as a number, with no unit following it.

Consider the following illustrative entries.
Cc1c(C(=O)NCCC2CCCCC2)sc2ncnc(N3CCCCC3C)c12 (stereo not drawn) : 3.411
O=C(Nc1ncnc2sc3c(c12)CCCCC3)c1ccc(F)cc1 : 26.878
CNc1nc(=S)[nH]c2sc3c(c12)CCCC3 : −0.378
Cc1c(C(=O)N2CCCCCC2)sc2ncnc(N3CCN(c4ccccc4)CC3)c12 : −0.939
Cc1c(C(=O)Nc2ccc(F)cc2F)sc2ncnc(N3CCC(C)CC3)c12 : 154.72
Cc1cc(C)c(C)c(S(=O)(=O)N2CCN(c3ncnc4sc5c(c34)CCCC5)CC2)c1C : −0.334

Reported Composite Z score, PDE4A5 for Cc1nc(N2CCCCC2)c2c(C)c(C(=O)Nc3cccc(C(F)(F)F)c3)sc2n1 was 1.7466

Noted for c1nc(NCCCN2CCOCC2)c2c3c(sc2n1)CCCC3 : its Composite Z score, PDE4A5 reads −4.733

Reported Composite Z score, PDE4A5 ( CC(C)CC(Nc1ncnc2sc3c(c12)CCC3)C(=O)O (stereo not drawn) ) = −0.102

// sample COc1ccc(CCNc2ncnc3sc4c(c23)CCCC4)cc1 , its Composite Z score, PDE4A5 was 20.422

Summary for this molecule, CCOC(=O)c1ccccc1NC(=O)c1sc2nc(C)nc(N(CC)CC)c2c1C : Composite Z score, PDE4A5 is 1.3091

The molecule listed as CCOC(=O)c1sc2nc(Cc3ccccc3)nc(NCCC3CCCCC3)c2c1C has a reported Composite Z score, PDE4A5 of 2.5342

Summary for this molecule, OCCNc1ncnc2sc3c(c12)CCCC3 : Composite Z score, PDE4A5 is 2.0846

---

molecular target: PDE7A (Homo sapiens); assay: 5FOA growth assay in fission yeast strain expressing PDE7A; format: cell-based; design: targets used in the assays are full-length proteins (as opposed to simply the catalytic domain); expressed in transfected cells; host or cells: Schizosaccharomyces pombe, PDE gene integrated in place of cgs2; conditions: high throughput 5FOA growth screen
Sequence (Q13946 whole entry, the tested form may be a part): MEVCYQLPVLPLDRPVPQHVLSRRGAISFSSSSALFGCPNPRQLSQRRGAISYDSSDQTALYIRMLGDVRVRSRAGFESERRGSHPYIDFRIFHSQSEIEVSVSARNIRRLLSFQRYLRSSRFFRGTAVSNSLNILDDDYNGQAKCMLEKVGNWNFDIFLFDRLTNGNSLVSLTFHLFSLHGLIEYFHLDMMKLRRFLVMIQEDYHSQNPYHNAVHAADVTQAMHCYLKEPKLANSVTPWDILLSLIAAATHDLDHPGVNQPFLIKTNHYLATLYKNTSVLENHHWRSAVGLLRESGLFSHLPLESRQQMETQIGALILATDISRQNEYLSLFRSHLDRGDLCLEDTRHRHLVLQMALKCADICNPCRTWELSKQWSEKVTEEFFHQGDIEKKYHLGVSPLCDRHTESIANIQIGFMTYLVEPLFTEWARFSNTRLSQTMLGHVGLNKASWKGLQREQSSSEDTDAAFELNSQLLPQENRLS
readout.label: Composite Z score, PDE7A
Answer with a bare number; do not write a unit.

These recorded examples may help you get a feel for the data.
CCOC(=O)c1ccccc1NC(=O)c1sc2nc(C)nc(N(CC)CC)c2c1C : 1.3653
COc1ccccc1CNC(=O)c1sc2ncnc(N3CCN(c4ccccc4F)CC3)c2c1C : 0.5923
COc1cccc(NC(=O)c2sc3ncnc(N4CCc5ccccc5C4)c3c2C)c1 : 0.4852

CCOC(=O)c1sc2nc(C)nc(N(C)Cc3ccccc3)c2c1C yielded Composite Z score, PDE7A of 0.2354

Consider CCN(CC)CCCNc1ncnc2sc3c(c12)CC(C)CC3 (centres unmarked) . Its measured Composite Z score, PDE7A is −1.18

Reported Composite Z score, PDE7A ( Cc1sc2ncnc(N3CCN(c4cccc(C(F)(F)F)c4)CC3)c2c1C ) = −1.925

---

tested on: PDE4A, PDE4B, PDE4D, PDE7A, PDE7B, PDE8A, PDE3A; assay: Summary of PDE inhibitor profile; set-up: key: (1): Strong PDE4A, PDE4B inhibitor; (2): Strong PDE4A inhibitor; (3): Strong PDE4B, moderate PDE4A inhibitor; (4): Moderate PDE4A, PDE4B inhibitor; (5): Moderate PDE4B inhibitor; details: overall classification, Table 17 footnotes
readout.label: PDE inhibitor profile (Table 17)

Cc1ccc2c(c1)c1nc3ccccc3nc1n2C(C)C [Compound 41] : 41 (1)
CCc1ccc2c(c1)c1nc3ccccc3nc1n2CC [2015, P06] : 2015, P06 (4)
CCCCn1c2ccccc2c2nc3ccccc3nc21 [2013, I20] : 2013, I20 (1)
CC(C)Cn1c2ccccc2c2nc3ccccc3nc21 [1422, M02] : 1422, M02 (2)
C=CCn1c2ccccc2c2nc3ccccc3nc21 [1427, P20] : 1427, P20 (3)
C=Cn1c2ccccc2c2nc3ccccc3nc21 [2033, H06] : 2033, H06 (4)

Recorded result, CC(C)n1c2ccc(Cl)cc2c2nc3ccccc3nc21 [Compound 35] , PDE inhibitor profile (Table 17): 35 (1)

---

Molecular target: PDE4B3 (Mus musculus, UniProt Q8VBU5)
Construct: targets used in the assays are full-length proteins (as opposed to simply the catalytic domain); expressed in transfected cells; host or cells: Schizosaccharomyces pombe, PDE gene integrated in place of cgs2
Sequence (Q8VBU5 1-721): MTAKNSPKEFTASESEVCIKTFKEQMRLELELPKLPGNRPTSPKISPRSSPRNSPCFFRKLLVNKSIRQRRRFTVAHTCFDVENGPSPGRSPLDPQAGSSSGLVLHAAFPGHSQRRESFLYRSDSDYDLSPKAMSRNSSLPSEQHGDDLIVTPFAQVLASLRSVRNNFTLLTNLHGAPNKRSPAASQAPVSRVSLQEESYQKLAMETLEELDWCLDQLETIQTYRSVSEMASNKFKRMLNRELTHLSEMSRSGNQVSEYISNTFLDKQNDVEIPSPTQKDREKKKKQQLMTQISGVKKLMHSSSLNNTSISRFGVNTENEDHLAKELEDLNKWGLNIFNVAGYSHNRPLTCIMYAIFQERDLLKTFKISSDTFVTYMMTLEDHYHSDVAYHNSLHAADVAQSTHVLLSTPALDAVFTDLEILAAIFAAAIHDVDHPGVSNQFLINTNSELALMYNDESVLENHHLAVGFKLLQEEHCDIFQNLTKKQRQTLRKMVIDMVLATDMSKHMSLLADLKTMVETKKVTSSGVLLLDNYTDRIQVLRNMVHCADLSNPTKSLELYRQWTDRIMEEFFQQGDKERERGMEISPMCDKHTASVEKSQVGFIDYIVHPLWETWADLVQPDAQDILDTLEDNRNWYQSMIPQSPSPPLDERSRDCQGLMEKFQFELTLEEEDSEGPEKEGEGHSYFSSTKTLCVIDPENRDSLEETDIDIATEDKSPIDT
Test: 5FOA growth assay in fission yeast strain expressing PDE4B3
Assay type: cell-based, Murine
Settings: high throughput 5FOA growth screen
readout.label: Composite Z score, PDE4B3

Here's what some known entries look like.
OCCNc1ncnc2sc3c(c12)CCCC3 : 0.936
COC(=O)Cc1nc(N2CCC(C)CC2)c2c3c(sc2n1)CCCC3 : 0.7173
Cc1sc2ncnc(NCc3cccnc3)c2c1C : 1.6993

Kindly consider the entry below.
The recorded Composite Z score, PDE4B3 for O=C(c1ccco1)N1CCN(c2ncnc3sc4c(c23)CCCC4)CC1 is 5.6256
